# Assayed System: T1, Human MAGEB2 (Melanoma-associated antigen B2) (human, UniProt O15479 1-319)
# T1 construct: Intracellular antigen detected by IHC in FFPE material: CHO cells transfected with human MAGEB2 (mCherry vector with Myc/DDK tags, or ORF without tags)
# T1 sequence: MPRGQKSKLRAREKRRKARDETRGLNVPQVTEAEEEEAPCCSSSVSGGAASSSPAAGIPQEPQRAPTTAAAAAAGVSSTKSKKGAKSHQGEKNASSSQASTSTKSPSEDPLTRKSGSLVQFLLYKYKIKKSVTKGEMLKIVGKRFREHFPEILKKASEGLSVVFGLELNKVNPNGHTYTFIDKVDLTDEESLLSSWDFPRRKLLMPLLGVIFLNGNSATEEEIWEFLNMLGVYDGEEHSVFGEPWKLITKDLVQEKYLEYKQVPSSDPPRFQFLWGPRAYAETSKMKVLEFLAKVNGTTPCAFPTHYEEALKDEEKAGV
# Assay Protocol: IHC on FFPE U20S cells (endogenous MAGEB2)
Measurement Label: IHC % Frequency (%)
Response body: numeric value in %, unit text excluded.

Q: Answer with reported IHC % Frequency of 1C3 (antibody, V domains shown, also called MAGE-B2 (IC3); anti-MAGEB2 antibody 1C3) VH: QSLEESGGGLVQPEGSLTLTCTAFGVTLTNYYICWVRQAPGKGLEWVGCIDNANGRTYYASWAKGRFTISKTSSTTGTLQMTSLTAADTATYFCARSLATPLWGPGTLVTVSS VL: DIVMTQTPSSVEAAVGGTVTIKCQASQNISSYLAWYQQKPGQPPKLLIYRASTLASGVPSRFKGSGSGTQFTLTISDLECADAATYYCQSYDDSRSSNFFYAFGGGTEVVVKG
A: 60

Q: Fill in IHC % Frequency for record 4G17 (antibody, IgG1, V domains shown, Rabbit monoclonal IgG1; Tested as supernatant and as small batch purified antibody; also called MAGE-B2 (4G17); anti-MAGEB2 antibody 4G17) VH: QSLEESGGGLVQPEGSLTLTCTASGVTLSNYYICWVRQAPGKGLEWIGCIDNVNGRTYYASWAKGRFTISKTSSTTGTLQMTSLTAADTATYFCARSLATPLWGPGTLVTVSS VL: DIVMTQTPASVEAAVGGTVTIKCQASQNIDSYLAWYQQKPGQPPKLLIYRASTLASGVPSRFKGSGSGTEFTLTISDLECADAATYYCQSYDDSRSSSFFYGFGGGTEVVVK
A: 60

Q: Provide IHC % Frequency value for the following binder: 1J15 (antibody, IgG1, V domains shown, Rabbit monoclonal IgG1; Tested as supernatant and as small batch purified antibody; also called MAGE-B2 (IJ15); anti-MAGEB2 antibody 1J15) VH: QSLEESGGGLVQPEGSLTLTCTAFGFTLNNYYICWVRQAPGKGLEWIACIDNANGRTYYASWAKGRFTISKTSSTTVTLQMTSLTAADTATYFCARSLSTPLWGPGTLVTVSS VL: DIVMTQTPASVEAAVGGTVTIKCQASQSISSYLSWYQQKPGQPPKLLIYRASTLASGVPSRFRGSGSGTQFTLTISDLECADAATYYCQSYDDSSDNNFFYGFGGGTEVVVR
A: 50
